Test system: HepG2
protocol.summary: Antiproliferative activity against human HepG2 cells after 48 hrs by MTT assay
Type: functional, cell-based
run.parameters: HepG2, 48 h
attribute.measured: pIC50
Hey, just a heads up that pIC50 is the negative log base 10 of the concentration in molar.

Below are worked cases with known answers.
{"substance.smiles": "CC1(C)[C@@H](O)CC[C@]2(C)[C@H]3C(=O)C=C4[C@@H]5C[C@@](C)(C(=O)Nc6nc7c(F)cccc7s6)CC[C@]5(C)CC[C@@]4(C)[C@]3(C)CC[C@@H]12", "pIC50": 4.34}
{"substance.smiles": "CCOC(=O)[C@@]1(C)CC[C@]2(C)CC[C@]3(C)C(=CC(=O)[C@@H]4[C@@]5(C)CC[C@H](OC(=O)CCC(=O)Nc6nc7ccc(Cl)cc7s6)C(C)(C)[C@@H]5CC[C@]43C)[C@@H]2C1", "pIC50": 4.91}
{"substance.smiles": "COc1ccc2nc(NC(=O)[C@@]3(C)CC[C@]4(C)CC[C@]5(C)C(=CC(=O)[C@@H]6[C@@]7(C)CC[C@H](O)C(C)(C)[C@@H]7CC[C@]65C)[C@@H]4C3)sc2c1", "pIC50": 4.22}
{"substance.smiles": "CCOC(=O)[C@@]1(C)CC[C@]2(C)CC[C@]3(C)C(=CC(=O)[C@@H]4[C@@]5(C)CC[C@H](OC(=O)CCC(=O)Nc6nc7ccc(F)cc7s6)C(C)(C)[C@@H]5CC[C@]43C)[C@@H]2C1", "pIC50": 4.98}

Value of pIC50 reported for the compound CC1(C)[C@@H](O)CC[C@]2(C)[C@H]3C(=O)C=C4[C@@H]5C[C@@](C)(C(=O)Nc6nc7ccc(F)cc7s6)CC[C@]5(C)CC[C@@]4(C)[C@]3(C)CC[C@@H]12 is 4.44

Value of pIC50 reported for the compound CC1(C)[C@@H](O)CC[C@]2(C)[C@H]3C(=O)C=C4[C@@H]5C[C@@](C)(C(=O)Nc6nc7ccc(Cl)cc7s6)CC[C@]5(C)CC[C@@]4(C)[C@]3(C)CC[C@@H]12 is 4.66

Value of pIC50 reported for the compound CCOC(=O)[C@@]1(C)CC[C@]2(C)CC[C@]3(C)C(=CC(=O)[C@@H]4[C@@]5(C)CC[C@H](OC(=O)CCC(=O)Nc6nc7c(OC)cccc7s6)C(C)(C)[C@@H]5CC[C@]43C)[C@@H]2C1 is 4.66

Value of pIC50 reported for the compound CCOC(=O)[C@@]1(C)CC[C@]2(C)CC[C@]3(C)C(=CC(=O)[C@@H]4[C@@]5(C)CC[C@H](OC(=O)CCC(=O)Nc6nc7c(C)cccc7s6)C(C)(C)[C@@H]5CC[C@]43C)[C@@H]2C1 is 4.50

Value of pIC50 reported for the compound CCOC(=O)[C@@]1(C)CC[C@]2(C)CC[C@]3(C)C(=CC(=O)[C@@H]4[C@@]5(C)CC[C@H](OC(=O)CCC(=O)Nc6nc7c(Br)cccc7s6)C(C)(C)[C@@H]5CC[C@]43C)[C@@H]2C1 is 4.52

* * *

protocol.summary: Inhibition of HSP90/Cdc37 interaction in human doxorubicin-resistant NCI-H460 cells assessed as reduction in cell proliferation after 48 hrs by MTT assay
run.parameters: NCI-H460, 48 h
attribute.measured: pIC50
Hey, just a heads up that pIC50 is the negative log base 10 of the concentration in molar.

Below are worked cases with known answers.
{"substance.smiles": "COc1cccc2c1C(=O)c1c(O)c3c(c(O)c1C2=O)C[C@@](O)(C(=O)CO)C[C@@H]3O[C@H]1C[C@H](N)[C@H](O)[C@H](C)O1", "attribute.measured": "pIC50", "reported": 4.42}
{"substance.smiles": "CCOC(=O)[C@@]1(C)CC[C@]2(C)CC[C@]3(C)C(=CC(=O)[C@@H]4[C@@]5(C)CC[C@H](OC(=O)CCC(=O)Nc6nc7ccc(F)cc7s6)C(C)(C)[C@@H]5CC[C@]43C)[C@@H]2C1", "attribute.measured": "pIC50", "reported": 5.00}
{"substance.smiles": "CCOC(=O)[C@@]1(C)CC[C@]2(C)CC[C@]3(C)C(=CC(=O)[C@@H]4[C@@]5(C)CC[C@H](OC(=O)CCC(=O)Nc6nc7ccc(Cl)cc7s6)C(C)(C)[C@@H]5CC[C@]43C)[C@@H]2C1", "attribute.measured": "pIC50", "reported": 4.92}
{"substance.smiles": "CCOC(=O)[C@@]1(C)CC[C@]2(C)CC[C@]3(C)C(=CC(=O)[C@@H]4[C@@]5(C)CC[C@H](OC(=O)CCC(=O)Nc6nc7c(Cl)cccc7s6)C(C)(C)[C@@H]5CC[C@]43C)[C@@H]2C1", "attribute.measured": "pIC50", "reported": 4.74}
{"substance.smiles": "CCOC(=O)[C@@]1(C)CC[C@]2(C)CC[C@]3(C)C(=CC(=O)[C@@H]4[C@@]5(C)CC[C@H](OC(=O)CCC(=O)Nc6nc7c(F)cccc7s6)C(C)(C)[C@@H]5CC[C@]43C)[C@@H]2C1", "attribute.measured": "pIC50", "reported": 4.81}

The record that follows has no pIC50 shown yet.
Value of pIC50 reported for the compound CCOC(=O)[C@@]1(C)CC[C@]2(C)CC[C@]3(C)C(=CC(=O)[C@@H]4[C@@]5(C)CC[C@H](OC(=O)CCC(=O)Nc6nc7ccccc7s6)C(C)(C)[C@@H]5CC[C@]43C)[C@@H]2C1 is 4.72

* * *

Tested on: HepG2
protocol.summary: Antiproliferative activity against human HepG2 cells after 48 hrs by MTT assay
Type: functional, cell-based
run.parameters: HepG2, 48 h
attribute.measured: pIC50
Hey, just a heads up that pIC50 is the negative log base 10 of the concentration in molar.

Below are worked cases with known answers.
{"compound": "Cc1ccc2nc(NC(=O)[C@@]3(C)CC[C@]4(C)CC[C@]5(C)C(=CC(=O)[C@@H]6[C@@]7(C)CC[C@H](O)C(C)(C)[C@@H]7CC[C@]65C)[C@@H]4C3)sc2c1", "reported": 4.56}
{"compound": "CC1(C)[C@@H](O)CC[C@]2(C)[C@H]3C(=O)C=C4[C@@H]5C[C@@](C)(C(=O)Nc6nc7ccc(Br)cc7s6)CC[C@]5(C)CC[C@@]4(C)[C@]3(C)CC[C@@H]12", "reported": 4.40}

Value of pIC50 reported for the compound CC1=C(O)C(=O)C=C2C1=CC=C1[C@@]2(C)CC[C@@]2(C)[C@@H]3C[C@](C)(C(=O)O)CC[C@]3(C)CC[C@]12C [CELASTROL] is 5.21

* * *

Tested on: HepG2
protocol.summary: Antiproliferative activity against human HepG2 cells after 48 hrs by MTT assay
Assay type: functional, cell-based
run.parameters: HepG2, 48 h
Overview of recorded IC50 for various compounds

{"substance.smiles": "Cc1cccc2sc(NC(=O)[C@@]3(C)CC[C@]4(C)CC[C@]5(C)C(=CC(=O)[C@@H]6[C@@]7(C)CC[C@H](O)C(C)(C)[C@@H]7CC[C@]65C)[C@@H]4C3)nc12", "IC50": "> 100 µM"}
{"substance.smiles": "CC(=O)O[C@H]1CC[C@]2(C)[C@H]3C(=O)C=C4[C@@H]5C[C@@](C)(C(=O)Nc6nc7c(Br)cccc7s6)CC[C@]5(C)CC[C@@]4(C)[C@]3(C)CC[C@H]2C1(C)C", "IC50": "> 100 µM"}

Value of IC50 reported for the compound CCOC(=O)[C@@]1(C)CC[C@]2(C)CC[C@]3(C)C(=CC(=O)[C@@H]4[C@@]5(C)CC[C@H](OC(=O)CCC(=O)Nc6nc7c(Cl)cccc7s6)C(C)(C)[C@@H]5CC[C@]43C)[C@@H]2C1 is 17 µM

* * *

Tested on: HepG2
protocol.summary: Antiproliferative activity against human HepG2 cells after 48 hrs by MTT assay
Assay type: functional, cell-based
run.parameters: HepG2, 48 h
attribute.measured: IC50 (µM)
Your answer should be a plain number; it is taken to be in µM.

Below are worked cases with known answers.
{"substance.smiles": "COc1ccc2nc(NC(=O)[C@@]3(C)CC[C@]4(C)CC[C@]5(C)C(=CC(=O)[C@@H]6[C@@]7(C)CC[C@H](OC(C)=O)C(C)(C)[C@@H]7CC[C@]65C)[C@@H]4C3)sc2c1", "unit.label": "µM", "IC50": 85.6}
{"substance.smiles": "CC(=O)O[C@H]1CC[C@]2(C)[C@H]3C(=O)C=C4[C@@H]5C[C@@](C)(C(=O)Nc6nc7ccc(Br)cc7s6)CC[C@]5(C)CC[C@@]4(C)[C@]3(C)CC[C@H]2C1(C)C", "unit.label": "µM", "IC50": 86}
{"substance.smiles": "CC1(C)[C@@H](O)CC[C@]2(C)[C@H]3C(=O)C=C4[C@@H]5C[C@@](C)(C(=O)O)CC[C@]5(C)CC[C@@]4(C)[C@]3(C)CC[C@@H]12", "unit.label": "µM", "IC50": 94.5}

With HepG2 as the test system, CCOC(=O)[C@@]1(C)CC[C@]2(C)CC[C@]3(C)C(=CC(=O)[C@@H]4[C@@]5(C)CC[C@H](OC(=O)CCC(=O)Nc6nc7ccc(C)cc7s6)C(C)(C)[C@@H]5CC[C@]43C)[C@@H]2C1 showed IC50 of 27.5

These entries and their values trace back to ChEMBL document CHEMBL4219101.
